Listing: PBM binding z-score of selected sequences
# System: RXRa homodimer (NR concentration 180 nM)
# ASSAY_PROCEDURE: PBM binding z-score (relative to random genomic background probes); higher = stronger binding; sequences stand for … in GC…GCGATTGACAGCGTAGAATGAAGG
ENDPOINT: PBM binding z-score

>>> print(df.to_string())
                      ordered_residues             endpoint     value
 0  GCTAGCAGGCCATTTCGGTCACTCAATGACGGGC  PBM binding z-score    -0.116
 1  CCTGCTAGGTCATGGGCAGCTAATCTACAGTATG  PBM binding z-score      2.83
 2  CCTACTGGGCCAAACGTCATTGATTCCAATGCTC  PBM binding z-score  0.000676
 3  CGTCCAAGGTCAAAGAGGTCAGTGAATGCCGAGT  PBM binding z-score      7.47
 4  CCAGACAGGTGAAAGGTAACACAGTCTGGTACGC  PBM binding z-score      2.27
 5  ATCCCTAGGTAAAAGTTCAGTGAATCCCGAGGAT  PBM binding z-score      1.39
 6  AGAACGAGGGCAATGAGGTGATAGCACGGGTGGC  PBM binding z-score      1.04
 7  TCATATAGGTAAAAGGGGAAAGTCGGTGTGGTAA  PBM binding z-score      1.19
 8  CCGACTGGGGCATAAGGTTACCCTAAGCCAGCCC  PBM binding z-score      1.07
 9  TCATGTAGATCAGCAGGTTAAGAAAGCTGGCCAA  PBM binding z-score     0.381
10  GCAGACAGTTGAAACGCAGGTAACTCAGGGTGGC  PBM binding z-score     0.339
11  TTACCAAGGTGAGCTGTGGTCGTTGATCCAACTC  PBM binding z-score     0.152
12  GCGACTGCGGCAAAGCAGGTTACCATAAGGTTGG  PBM binding z-score   -0.0388
13  AGAATGAGGGTAAGATCAGGGAAACAGAATACAT  PBM binding z-score     0.321
14  ACTAGCAGGCCAAGGGTCACTCCAGATTAGTCCG  PBM binding z-score      3.74
15  GCGACTGGGGCATGAGCAGGTTACCATAACTTAA  PBM binding z-score     0.385
16  AATACAAGGTCACTAGGCCAGAGTAGGTACGAAT  PBM binding z-score      5.53
17  CCTACTGGGGCATAAGGTTACCATAAGCCAGCCC  PBM binding z-score      1.17
18  ATATGTAGGTTAGCTGGGGTCATTCATACTAGGC  PBM binding z-score      5.44
19  ATATCTAGGTTATCGGGTCATTCAGTTTGCGCAT  PBM binding z-score      3.51
20  GCAAATAGGTAATACAAGGTGAAAGTCCGATTGT  PBM binding z-score     0.951
21  TCATATAGGGAAACAGGTGAAAGTCCGTAAGTTA  PBM binding z-score     0.796
22  GGAACGAGGGCATTCGAGGTGATAGCATGGCGAT  PBM binding z-score      1.07
23  CCTACTGGGCCAAAAAGGGCATTGATGCCGATAA  PBM binding z-score    0.0736
24  TCATATATGTAAACAGGTGAAAGTCCGTAAGTTA  PBM binding z-score     0.989
25  TCGTGTAGGTTAGTCGGGGCATTCAGCCAACATA  PBM binding z-score     0.427

Attribution: the supplement of paper PMC6555819
